# Tested on: NCI-H460 lung
# measurementDescription: NCI tumour cell line growth inhibition, 48 h
Hi, to clarify the labels: MET covers TGI from 10 µM upward, NOT MET covers anything below 10 µM.

Some solved cases for reference:
| smi | classLabel |
| --- | --- |
| Cc1ccccc1NC(=S)N/N=C(/c1ccccc1)c1ccccn1 | NOT MET |
| Cc1ccc(S(=O)(=O)n2cc(-c3cnc(N)c(Br)n3)c3ccccc32)cc1 | MET |
| C/C1=C\CC[C@@](C)(O)[C@H]2C[C@H](CC/C(C)=C/CC1)C1(CC1)C(=O)O2 | MET |
| CC(C)OC(=O)c1ccc(CCC2=CC(=O)C(Br)=CC2=O)cc1 | MET |

**Query** Please check the record CCOC(=O)Nc1nc2c(F)c(F)c(F)cc2s1 and state if its TGI is at or above 10 µM.
**Result** MET

**Query** Please check the record C=C1c2nc3ccccc3n2C=C(c2ccc(Cl)cc2)N1c1ccccc1 and state if its TGI is at or above 10 µM.
**Result** MET

**Query** Please check the record O=C1c2ccccc2C(=O)N1C(=S)c1ccccc1 and state if its TGI is at or above 10 µM.
**Result** MET

**Query** Please check the record Cc1cc(C)cc(Nc2nccc(-c3c(-c4ccc(F)cc4)ncn3C3CCNCC3)n2)c1 and state if its TGI is at or above 10 µM.
**Result** NOT MET

**Query** Please check the record CSC(=S)N(C)NC(=O)c1cccc(C(=O)NN(C)C(=S)SC)n1 and state if its TGI is at or above 10 µM.
**Result** MET

**Query** Please check the record CCC(=N\NC(N)=S)/C(C)=N/O and state if its TGI is at or above 10 µM.
**Result** MET

**Query** Please check the record CN(C)c1nc(N(C)C)nc(N(C)CN(C)c2nc(N(C)C)nc(N(C)C)n2)n1 and state if its TGI is at or above 10 µM.
**Result** MET

Origin of measurements: PubChem BioAssay (NCI)
